# target_of_assay: USP8^CD (purified catalytic domain of USP8) (Homo sapiens)
# Construct: the purified catalytic domain of USP8 (USP8^CD, in-house purified); made in house; host or cells: E. coli BL21 Gold
# experiment_summary: Inhibition of purified USP8^CD enzymatic activity (Ub-AMC or Ub-Rho substrate)
# Assay type: biochemical
# measurement_conditions: Ub-AMC substrate at 1 μM; Table 2b; read-out: IC50 USP8 CD
pIC50: −log10 of the molar value.
outcome_measure: pIC50

| molecule | pIC50 |
| --- | --- |
| COc1ccc(S(=O)(=O)Cc2nc3c(nc2CS(=O)(=O)c2ccc(OC)cc2)C(=O)c2ccccc2C3=O)cc1 [PCR7994] | 5.30 |

[A] O=C1c2ccccc2C(=O)c2nc(CS(=O)(=O)c3ccc(F)c(F)c3F)c(CS(=O)(=O)c3ccc(F)c(F)c3F)nc21 [OVM23]
[B] COc1ccc(S(=O)(=O)Cc2nc3c(nc2CS(=O)(=O)c2ccc(OC)c(OC)c2)C(=O)c2ccccc2C3=O)cc1OC [OVM18]
[C] O=C1c2ccccc2C(=O)c2nc(CBr)c(CBr)nc21 [PCR8132]
Prompt: Ordering: ascending pIC50. Give the order by naming the labels one after another as requested.
Completion: C, A, B
(C: 5.35, A: 5.66, B: 6.30)

----------
# target_of_assay: USP8^CD (purified catalytic domain of USP8) (Homo sapiens, UniProt P40818)
# Construct: the purified catalytic domain of USP8 (USP8^CD, in-house purified); made in house; host or cells: E. coli BL21 Gold
# Sequence (P40818 777-1109 limits assumed): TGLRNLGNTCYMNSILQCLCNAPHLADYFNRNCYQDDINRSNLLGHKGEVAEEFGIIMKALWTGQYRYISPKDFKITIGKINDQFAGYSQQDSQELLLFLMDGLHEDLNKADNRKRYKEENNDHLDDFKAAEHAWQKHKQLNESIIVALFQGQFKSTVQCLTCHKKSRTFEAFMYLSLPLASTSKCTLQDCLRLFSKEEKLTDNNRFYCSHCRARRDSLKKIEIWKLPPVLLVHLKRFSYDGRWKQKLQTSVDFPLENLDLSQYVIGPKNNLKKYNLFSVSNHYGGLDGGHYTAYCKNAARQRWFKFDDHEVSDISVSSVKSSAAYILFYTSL
# experiment_summary: Inhibition of purified USP8^CD enzymatic activity (Ub-AMC or Ub-Rho substrate)
# Type: biochemical
# measurement_conditions: 0.5 μM compound; Ub-AMC at 1 μM; Table 1a
# Description: USP2CD or USP8CD were expressed in E. coli BL21 Gold. Cells were grown in LB Miller to mid-log phase and induced by addition of 0.5 mM IPTG for USP2CD for 5 h at 20° C., while 1 mM IPTG was added for USP8CD for 3 h at 37° C. Then, cells were harvested and frozen at −80° C. For His-tagged USP8CD, cells were resuspended in buffer A (50 mM TRIS pH 8.0, 500 mM NaCl, 2 mM Imidazole) and lysed using a sonicator. […]
outcome_measure: USP8^CD % inhibition (%)

| substance_smiles | outcome_measure | assay_value |
| --- | --- | --- |
| O=C1c2ccccc2C(=O)c2nc(CS(=O)(=O)c3ccccc3)c(CS(=O)(=O)c3ccccc3)nc21 | USP8^CD % inhibition | 13 |

[1] CC/C=C/c1nc2c(nc1/C=C/CC)C(=O)c1ccccc1C2=O
[2] O=C1c2ccccc2C(=O)c2nc(CS(=O)(=O)c3ccc(F)cc3)c(CS(=O)(=O)c3ccc(F)cc3)nc21
Prompt: Looking at 1 and 2 , which one comes out lower in USP8^CD % inhibition terms? State the label of the item chosen.
Completion: 2
(2: 16%, 1: 25%)

----------
# target_of_assay: USP2^CD (purified catalytic domain of USP2) (Homo sapiens, UniProt O75604)
# Construct: The purified catalytic domain of USP2 (USP2^CD, in-house purified); His; made in house; host or cells: E. coli BL21 Gold
# Sequence (O75604 267-599 limits assumed): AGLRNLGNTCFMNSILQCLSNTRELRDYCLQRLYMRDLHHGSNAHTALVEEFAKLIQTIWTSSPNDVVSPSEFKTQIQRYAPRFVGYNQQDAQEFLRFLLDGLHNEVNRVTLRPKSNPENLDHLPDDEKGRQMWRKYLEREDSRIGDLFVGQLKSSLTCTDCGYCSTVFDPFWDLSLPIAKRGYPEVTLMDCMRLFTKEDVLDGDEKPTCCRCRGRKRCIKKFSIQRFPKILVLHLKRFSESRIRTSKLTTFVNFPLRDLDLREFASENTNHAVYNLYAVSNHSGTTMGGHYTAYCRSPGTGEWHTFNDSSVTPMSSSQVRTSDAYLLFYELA
# experiment_summary: Inhibition of purified USP2^CD enzymatic activity (Ub-AMC or Ub-Rho substrate)
# Type: biochemical
# measurement_conditions: 5 μM compound; Table 1c
outcome_measure: inhibition at 5 µM (%)

# count of solved cases: 5
| substance_smiles | outcome_measure | assay_value |
| --- | --- | --- |
| CCCCCS(=O)(=O)Cc1nc2c(nc1CS(=O)(=O)CCCCC)C(=O)c1ccccc1C2=O | inhibition at 5 µM | 20 |
| CCCS(=O)(=O)Cc1nc2c(nc1CS(=O)(=O)CCC)C(=O)c1ccccc1C2=O | inhibition at 5 µM | 70 |
| CCS(=O)(=O)Cc1nc2c(nc1CS(=O)(=O)CC)C(=O)c1ccccc1C2=O | inhibition at 5 µM | 51 |
| COc1ccc(S(=O)(=O)Cc2nc3c(nc2CS(=O)(=O)c2ccc(OC)c(OC)c2)C(=O)c2ccccc2C3=O)cc1OC | inhibition at 5 µM | 17 |
| O=C1c2ccccc2C(=O)c2nc(CS(=O)(=O)c3ccccc3F)c(CS(=O)(=O)c3ccccc3F)nc21 | inhibition at 5 µM | 20 |

[P] CS(=O)(=O)Cc1nc2c(nc1CS(C)(=O)=O)C(=O)c1ccccc1C2=O
[Q] O=C1c2ccccc2C(=O)c2nc(CS(=O)(=O)c3cccc(F)c3)c(CS(=O)(=O)c3cccc(F)c3)nc21
[R] O=C1c2ccccc2C(=O)c2nc(CS(=O)(=O)c3ccc4c(c3)OCCO4)c(CS(=O)(=O)c3ccc4c(c3)OCCO4)nc21
Prompt: Put the entries in order of inhibition at 5 µM, starting with the largest number. Give the order by naming the labels one after another as requested.
Completion: P, Q, R
(P: 19%, Q: 10%, R: -3%)

----------
# target_of_assay: USP8^CD (purified catalytic domain of USP8) (Homo sapiens, UniProt P40818)
# Construct: the purified catalytic domain of USP8 (USP8^CD, in-house purified); made in house; host or cells: E. coli BL21 Gold
# experiment_summary: Inhibition of purified USP8^CD enzymatic activity (Ub-AMC or Ub-Rho substrate)
# Assay type: biochemical
# measurement_conditions: 0.05 μM compound; Table 1d
outcome_measure: inhibition at 0.05 µM (%)

[A] COc1ccc(S(=O)(=O)Cc2nc3c(nc2CS(=O)(=O)c2ccc(OC)c(OC)c2)C(=O)c2ccccc2C3=O)cc1OC
[B] CCCCCS(=O)(=O)Cc1nc2c(nc1CS(=O)(=O)CCCCC)C(=O)c1ccccc1C2=O
[C] O=C1c2ccccc2C(=O)c2nc(CS(=O)(=O)c3ccccc3F)c(CS(=O)(=O)c3ccccc3F)nc21
Prompt: Reorder the list: decreasing inhibition at 0.05 µM. Give the order by naming the labels one after another as requested.
Completion: A, C, B

----------
# target_of_assay: USP8^CD (purified catalytic domain of USP8) (Homo sapiens)
# Construct: the purified catalytic domain of USP8 (USP8^CD, in-house purified); made in house; host or cells: E. coli BL21 Gold
# experiment_summary: Inhibition of purified USP8^CD enzymatic activity (Ub-AMC or Ub-Rho substrate)
# Assay type: biochemical
# measurement_conditions: 25 μM compound; Ub-AMC at 1 μM; Table 1a
outcome_measure: USP8^CD % inhibition (%)

[I] O=C1c2ccccc2C(=O)c2nc(C=C3CCCC3)c(C=C3CCCC3)nc21 [PCR8153]
[II] Cc1ccc(S(=O)(=O)Cc2nc3c(nc2CS(=O)(=O)c2ccc(C)cc2)C(=O)c2ccccc2C3=O)cc1 [PCR7985]
Prompt: Looking at I and II , which one comes out lower in USP8^CD % inhibition terms? State the label of the item chosen.
Completion: II

----------
# target_of_assay: USP8^CD (purified catalytic domain of USP8) (Homo sapiens)
# Construct: the purified catalytic domain of USP8 (USP8^CD, in-house purified); made in house; host or cells: E. coli BL21 Gold
# experiment_summary: Inhibition of purified USP8^CD enzymatic activity (Ub-AMC or Ub-Rho substrate)
# Assay type: biochemical
# measurement_conditions: 5 μM compound; Ub-AMC at 1 μM; Table 1a
outcome_measure: USP8^CD % inhibition (%)

# count of solved cases: 4
| compound | outcome_measure | unit_info | assay_value |
| --- | --- | --- | --- |
| O=C1c2ccccc2C(=O)c2nc(CS(=O)(=O)c3ccc(F)cc3)c(CS(=O)(=O)c3ccc(F)cc3)nc21 [PCR7993] | USP8^CD % inhibition | % | 22 |
| O=C1c2ccccc2C(=O)c2nc(C=C3CCCC3)c(C=C3CCCC3)nc21 [PCR8153] | USP8^CD % inhibition | % | 22 |
| O=C1c2ccccc2C(=O)c2nc(CS(=O)(=O)c3cccs3)c(CS(=O)(=O)c3cccs3)nc21 [PCR7997] | USP8^CD % inhibition | % | 61 |
| O=C1c2ccccc2C(=O)c2nc(CCl)c(CCl)nc21 [PCR8146] | USP8^CD % inhibition | % | 43 |

[a] CC/C=C/c1nc2c(nc1/C=C/CC)C(=O)c1ccccc1C2=O [PCR8156]
[b] Cc1ccc(S(=O)(=O)Cc2nc3c(nc2CS(=O)(=O)c2ccc(C)cc2)C(=O)c2ccccc2C3=O)cc1 [PCR7985]
[c] Cc1cc(C)c(S(=O)(=O)Cc2nc3c(nc2CS(=O)(=O)c2c(C)cc(C)cc2C)C(=O)c2ccccc2C3=O)c(C)c1 [PCR7996]
Prompt: Ordering: ascending USP8^CD % inhibition. Give the order by naming the labels one after another as requested.
Completion: b, a, c
